# Tgt: Glutathione peroxidase 1 (Homo sapiens) (UniProt P07203)
# Sequence (P07203 whole entry, looked up): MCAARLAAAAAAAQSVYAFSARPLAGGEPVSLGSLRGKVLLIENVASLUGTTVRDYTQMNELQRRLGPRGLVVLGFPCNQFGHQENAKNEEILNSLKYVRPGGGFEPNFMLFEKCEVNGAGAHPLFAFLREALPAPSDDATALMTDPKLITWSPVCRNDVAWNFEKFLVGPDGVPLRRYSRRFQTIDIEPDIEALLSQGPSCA
# Method description: Primary qHTS Assay for Inhibitors of Recombinant Selenoprotein Glutathione Peroxidase 1 (GPX1) (AID 1845191); also: nearly all actives have a fitted effect of over 65% in size
# Conditions used: recombinant GPX1, GR-coupled NADPH fluorescence, 15 min; series mostly up to 48.8 µM
Results filed as inconclusive are left out. The source made the active and inactive calls. Calls follow the shape of the dose curve; as a rule, active = well fitted inhibition curve with a large enough effect; inconclusive = small, poorly fitted or top-dose-only effect; inactive = flat fitted curve, though single readings scatter.
Observation type: outcome

- CC(=O)Nc1nc(C)c(-c2ccc(Cl)c(S(=O)(=O)NCCO)c2)s1: inactive
- C=CCn1c(=O)c2cnc(Nc3ccc(N4CCN(C)CC4)cc3)nc2n1-c1cccc(C(C)(C)O)n1: inactive
- Cc1nc2cnc3ccc(C#Cc4cccnc4)cc3c2n1-c1ccc(C(C)(C)C#N)cc1: inactive
- Cc1ccc(NC(=O)C2(c3ccc4c(c3)OC(F)(F)O4)CC2)nc1-c1cccc(C(=O)O)c1: inactive
- COC(=O)Nc1ccc(-c2nc(N3CCOCC3)c3cnn(C4CCN(Cc5cccnc5)CC4)c3n2)cc1: inactive
- Nc1nc(-c2nn(Cc3ccccc3F)c3ncccc23)nc(N)c1N1CCOCC1: inactive
- CCCCOc1c(C(=O)c2c(F)cc(C)cc2F)cnc2n[nH]cc12: inactive
- C#Cc1cccc(Nc2ncnc3cc(OC)c(OCCCCCCC(=O)NO)cc23)c1: inactive
- Cc1coc2c1C(=O)C(=O)c1c-2ccc2c1CCCC2(C)C: inactive
- CN1CC[C@@H](c2c(O)cc(O)c3c(=O)cc(-c4ccccc4Cl)oc23)[C@@H](O)C1: inactive
- COCCOc1ccc2c(c1)ncn2-c1ccc2cccc(N3CCC(N)CC3)c2n1: inactive
- Nc1nc(Nc2ccc(S(N)(=O)=O)cc2)nn1C(=O)c1c(F)cccc1F: inactive
- CN(C)CC(C)(C)CNc1nn2c(-c3ccccc3)nnc2cc1C1CCC1: inactive
- CC(=O)OCC(=O)[C@@]1(O)[C@H](C)C[C@H]2[C@@H]3C=C(C)C4=Cc5c(cnn5-c5ccccc5)C[C@]4(C)[C@@H]3[C@@H](O)C[C@@]21C: inactive
- Cn1c2ccccc2c2c3c(c4c5ccccc5n(CCC#N)c4c21)CNC3=O: inactive
- O=c1[nH]c(=O)n(C2CCCO2)cc1F (stereo not given): inactive
- Cc1c(NC(=O)OC[C@@H]2COCCN2)cn2ncnc(Nc3ccc4c(cnn4Cc4cccc(F)c4)c3)c12: inactive
- Cc1ccc(C(=O)Nc2cccc(C(F)(F)F)c2)cc1-c1ccc2nc(NCCN3CCOCC3)ncc2c1: inactive
- CN(C)CCCN=c1c2ccccc2n(C)c2[nH]c(=O)n(C)c(=O)c12: inactive
- Nc1nccc(Oc2ccc(NC(=O)c3c[nH]cc(-c4ccc(F)cc4)c3=O)cc2F)c1Cl: inactive

* * *

# Method description: qHTS of pediatric cancer cell lines to identify multiple opportunities for drug repurposing: Primary screen for Rh30 cells (AID 1347107); also: nearly all actives have a fitted effect of over 75% in size
# Conditions used: Rh30 rhabdomyosarcoma viability, CellTiter-Glo luminescence, 48 h; series mostly up to 46 µM
Records with an inconclusive call do not appear. The source made the active and inactive calls. The call rests on the fitted dose curve; in most records, active means well fitted cell-killing curve with a large enough effect; inconclusive means small, poorly fitted or top-dose-only effect; inactive means no such curve, though single readings can be large or run the other way.
Labels: active, inactive

- COc1cc2c(NC3CCN(C(C)C)CC3)nc(C3CCCCC3)nc2cc1OCCCN1CCCC1: active
- Nc1ccccc1NC(=O)c1ccc(CNC(=O)OCc2cccnc2)cc1: active
- CC(C)(C)OC(=O)Nc1ccc(-c2cc(C(=O)NCCCCCCC(=O)NO)no2)cc1: active
- O=C(Nc1ncc(-c2cc(C(F)F)nn2-c2c(Cl)cccc2Cl)s1)C1CC1: inactive
- NC(=O)c1cccc2cn(-c3ccc([C@@H]4CCCNC4)cc3)nc12: inactive
- CCCCCN(CCC12CC3CC(CC(C3)C1)C2)C(=O)NCCCc1ccncc1: inactive
- CCCCOc1c(C(=O)c2c(F)cc(C)cc2F)cnc2n[nH]cc12: inactive
- CC(=O)OCCN1C(=O)c2c(C)nc3ccc(S(=O)(=O)N4CCOCC4)cc3c2C1=O: inactive
- Fc1cc(-c2cccc3ncc(-c4cnn(C5CCNCC5)c4)nc23)cc(F)c1CN1CCOCC1: active
- O=C(c1ccc(Nc2nccc(-c3cc4ccccc4s3)n2)cc1)N1CCC(N2CCCC2)CC1: active

All figures here come from PubChem BioAssay (NCATS).
